# Tested on: UACC-62 melanoma
# method: NCI-60 one-dose screen, 48 h (100 = growth as untreated, 0 = no growth, -100 = all killed)
# test settings: 10 µM unless noted
About 83,000 compounds went through this panel and 20% of them were active in at least one assay; those are over-represented in the sample as a whole.
Param label: returns Met when growth < 20%, returns Not met otherwise, including exact equality.

Answered examples (3):
molecule | answer label
COc1cc(-c2nc3ccccc3[nH]2)ccc1OCC(=O)N=Nc1c(O)[nH]c2ccc(Cl)cc12 | Met
Cc1ccccc1COc1ccc(-c2onc(C)c2-c2ccc(Cl)cc2)cc1 | Not met
Cc1[nH]c(-c2ccc3cc[nH]c3c2)c2c1C(=O)CCCC2 | Not met

Exercise: In the record for COc1cc(/C=C/c2cc(/C=C/c3ccc(O)c(OC)c3)n(-c3c(Cl)cccc3Cl)c(=O)n2)ccc1O , is growth less than 20%?
Key: Not met

Exercise: In the record for COc1cc2c(cc1-c1c(C)noc1C)ncc1nc(C3CCOCC3)n([C@@H](C)COC(F)F)c12 , is growth less than 20%?
Key: Not met
